Target: Grp94 (Canis lupus familiaris, UniProt P41148)
Sequence (P41148 with tags, fused parts or gaps DELINS287-327GGGG): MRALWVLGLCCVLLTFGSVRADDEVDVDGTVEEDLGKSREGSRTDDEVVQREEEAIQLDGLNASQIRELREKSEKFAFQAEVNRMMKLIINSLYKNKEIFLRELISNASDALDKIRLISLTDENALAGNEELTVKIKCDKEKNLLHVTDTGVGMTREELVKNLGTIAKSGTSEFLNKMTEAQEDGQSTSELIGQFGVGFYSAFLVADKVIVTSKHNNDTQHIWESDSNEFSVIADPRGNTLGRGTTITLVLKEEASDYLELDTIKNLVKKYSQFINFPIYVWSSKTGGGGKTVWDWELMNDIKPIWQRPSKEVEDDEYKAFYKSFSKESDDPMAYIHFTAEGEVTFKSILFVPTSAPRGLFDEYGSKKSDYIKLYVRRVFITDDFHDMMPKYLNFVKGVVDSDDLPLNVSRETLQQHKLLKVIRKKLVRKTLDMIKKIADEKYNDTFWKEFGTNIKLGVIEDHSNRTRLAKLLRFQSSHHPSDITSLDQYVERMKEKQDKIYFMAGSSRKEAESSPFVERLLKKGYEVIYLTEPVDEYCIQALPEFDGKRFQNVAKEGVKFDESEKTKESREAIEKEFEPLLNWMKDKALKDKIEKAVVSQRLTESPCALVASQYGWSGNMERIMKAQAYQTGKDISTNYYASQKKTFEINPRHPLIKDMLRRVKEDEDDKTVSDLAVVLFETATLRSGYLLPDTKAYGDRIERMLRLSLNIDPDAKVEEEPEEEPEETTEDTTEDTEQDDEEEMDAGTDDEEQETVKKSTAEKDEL
Conditions: read-out: Grp94; FP competition, 6 nM Cy3B-GM, 10 nM protein, 4° C. for 24 h
test-readout: IC50 (µM)

Solved entries:
| compound | experimental-system | IC50, µM |
| --- | --- | --- |
| Nc1ncnc2c1nc(Sc1cc(Cl)cc(Cl)c1)n2CCCN1CC(O)C1 [HJP-V-134] | Grp94 (Canis lupus familiaris, UniProt P41148) | 0.38 |
| COc1cccc(-c2cc(Cl)cc(Sc3nc4c(N)ncnc4n3CCCNC(C)C)c2)c1 [HJP-VI-7] | Grp94 (Canis lupus familiaris, UniProt P41148) | 0.26 |
| C#CCC(CC)n1c(Sc2ccc(Cl)cc2Cl)nc2c(N)ncnc21 (stereo not shown) [HJP-V-117] | Grp94 (Canis lupus familiaris, UniProt P41148) | 0.92 |
| C#CCCCn1cnc(N)c2nc(Sc3ccc(OC)cc3OC)nc1-2 [PU-H44] | Grp94 (Canis lupus familiaris, UniProt P41148) | 46.8 |
| C#CCCCn1c([S+]([O-])c2ccc(Cl)cc2Cl)nc2c(N)ncnc21 (stereo not shown) [HJP-V-62M] | Grp94 (Canis lupus familiaris, UniProt P41148) | 5.4 |

(P) C#CCCCn1cnc(N)c2nc(Sc3cc(Cl)ccc3Cl)nc1-2 [PU-H43]
(Q) C#CCCCn1c(Sc2cccc3ccccc23)nc2c(N)ncnc21 [PDP-I-16-N9]
(R) C#CCCCn1c(Sc2ccccc2OC)nc2c(N)ncnc21 [PU-H5]
Problem: Rank ascending by IC50. Write the labels, ordered according to the request.
Solution: Q, R, P
(Q: 2.16 µM, R: 6.2 µM, P: 35.3 µM)

---

Target: Hsp90α (Homo sapiens, UniProt P07900)
Test: biochemical
Conditions: FP competition, 6 nM Cy3B-GM, 10 nM protein, 4° C. for 24 h
pIC50: −log10 of the molar value.
test-readout: pIC50

Solved entries:
| compound | pIC50 |
| --- | --- |
| C[C@H](NCCCn1c(Sc2cc(Cl)cc(Cl)c2)nc2c(N)ncnc21)C1CC1 [SO-III-127B] | 4.39 |
| C#CCCCn1c(Sc2ccc(Cl)c(Cl)c2Cl)nc2c(N)ncnc21 [PDP-126A] | 4.80 |
| CC(C)CNCCCn1c(Sc2cc(Cl)cc(I)c2)nc2c(N)ncnc21 | 4.38 |
| C[C@@H](NCCCn1c(Sc2cc(Cl)cc(Cl)c2)nc2c(N)ncnc21)C1CC1 [SO-III-128B] | 4.45 |

(P) CC(C)(C)NCCCn1c(Sc2cc(Cl)cc(I)c2)nc2c(N)ncnc21
(Q) CC(C)NCCCn1c(Sc2ccc(Cl)cc2-c2ccc[nH]2)nc2c(N)ncnc21
(R) C#Cc1cc(Cl)cc(Sc2nc3c(N)ncnc3n2CCCNC(C)C)c1
(S) C#CCCCn1c(Cc2c(Cl)cccc2Cl)nc2c(N)ncnc21
Problem: Rank descending by pIC50. Write the labels, ordered according to the request.
Solution: S, P, Q, R

---

Molecular target: Grp94 (Canis lupus familiaris, UniProt P41148)
Conditions: read-out: binding affinity (FP competition); probe 115a
test-readout: IC50 (µM)

(I) Nc1ncnc2c1ncn2[C@@H]1O[C@H](COP(=O)(O)OP(=O)(O)OP(=O)(O)O)[C@@H](O)[C@H]1O [ATP]
(II) Nc1ncnc2c1ncn2[C@@H]1O[C@H](COP(=O)(O)OP(=O)(O)O)[C@@H](O)[C@H]1O [ADP]
Problem: When the recorded IC50 values are compared, which is smaller: that of I or that of II ? Give the label of your selection.
Solution: I

Cited source for all entries: patent US12600725B2
